- System: M14 melanoma
- experimental-details: NCI-60 one-dose screen, 48 h (100 = growth as untreated, 0 = no growth, -100 = all killed)
- protocol-conditions: 10 µM
This is part of a sample that, as a whole, favours compounds with a hit. Of some 83,000 tested, about 20% had one in any assay.
Decide using growth alone. Strictly below 30%: Met. Equal to or above 30%: Not met.

INSERT INTO results (structure, qualitative_label) VALUES
  ('CN1CCC(CNc2cc(C3(C(=O)Nc4cc(C(=O)Nc5ccc(Cl)c(C(F)(F)F)c5)ccc4F)CC3)ncn2)CC1', 'Met'),
  ('COc1cc(/C=C\c2cc(OC)c(OC)c(OC)c2)cc(NS(=O)(=O)c2ccc(Cl)cc2)c1OC', 'Met'),
  ('CN(C)CCN=c1nc2c(c(N)n1-c1ccccc1)c(=S)n(-c1ccccc1)c(=S)n2-c1ccccc1', 'Met'),
  ('CC1=C(N2CCOCC2)C(N2CCOCC2)=C(C)C(=O)C1=O', 'Not met'),
  ('Cc1cc(Nc2ccc(Cl)cc2)nc(NCCCNc2ccnc3cc(Cl)ccc23)n1', 'Met'),
  ('O=C(Nc1cccc(Cl)c1)Nc1nccs1', 'Not met'),
  ('COc1ccc(Oc2nc(NC3CCCC3)nc(Sc3ccc(OC)cc3)n2)cc1', 'Not met'),
  ('O=C(Nc1ccccc1)Nc1cccc(-n2cc(-c3ccncc3)c(-c3ccc(O)c(Cl)c3)n2)c1', 'Not met'),
  ('O=[N+]([O-])c1ccc(Oc2cccnc2)c([N+](=O)[O-])c1', 'Not met'),
  ('O=C(/C(=C/c1ccccc1)CN1CCCCC1)c1ccccc1', 'Met');

* * *

- Test system: A549/ATCC NSCLC
- experimental-details: NCI-60 one-dose screen, 48 h (100 = growth as untreated, 0 = no growth, -100 = all killed)
- protocol-conditions: 10 µM
The panel holds about 83,000 compounds, 20% with a hit somewhere; the sample as a whole holds those more often.
Classify on growth using low end (below 40%), middle (40% to below 60%), high end (60% or more)

INSERT INTO measurements (structure, study_system, qualitative_label) VALUES
  ('C(CCCC1=NCCO1)CCCC1=NCCO1', 'A549/ATCC NSCLC', 'high end'),
  ('COc1cc(-c2cc(/C=C3\C(=O)Nc4cc(Cl)ccc43)[nH]n2)cc(OC)c1OC', 'A549/ATCC NSCLC', 'middle'),
  ('COc1cc(-c2cc(/C=C3\C(=O)Nc4ccccc43)[nH]n2)cc(OC)c1OC', 'A549/ATCC NSCLC', 'middle'),
  ('CS(=O)(=O)Nc1ccc(Nc2c3ccccc3nc3cc(N)ccc23)cc1', 'A549/ATCC NSCLC', 'low end'),
  ('N=c1c2c(-c3ccccc3)c(-c3ccccc3)n(Cc3ccccc3)c2ncn1CCCO', 'A549/ATCC NSCLC', 'low end'),
  ('CCN1CCN(c2nc3ccccc3c3c(=O)c4ccccc4sc23)CC1', 'A549/ATCC NSCLC', 'low end'),
  ('CCCCCC(=O)c1ccc(OCCCN2CCN(C(=O)OCC)CC2)cc1', 'A549/ATCC NSCLC', 'high end'),
  ('CCN(CC)Cc1cc(Nc2ccnc3cc(Cl)ccc23)ccc1OC', 'A549/ATCC NSCLC', 'high end');
